# total protein half-life in vivo listing for each entry below
- Test: total protein half-life in vivo (active degradation + dilution); higher = more stable protein
- Conditions: wild type E. coli NCM3722; growth: N-lim chemostat; doubling time 12 h
State the answer as a number, implicitly in h.

In the examples that follow, each entry is paired with its recorded total protein half-life in vivo.
MLSNDILRSVRYILKANNNDLVRILALGNVEATAEQIAVWLRKEDEEGFQRCPDIVLSSFLNGLIYEKRGKDESAPALEPERRINNNIVLKKLRIAFSLKTDDILAILTEQQFRVSMPEITAMMRAPDHKNFRECGDQFLRYFLRGLAARQHVKKG :: 8.7
MLYVIYAQDKADSLEKRLSVRPAHLARLQLLHDEGRLLTAGPMPAVDSNDPGAAGFTGSTVIAEFESLEAAQAWADADPYVAAGVYEHVSVKPFKKVF [P0AB55] :: 7.02
MWYQKTLTLSAKSRGFHLVTDEILNQLADMPRVNIGLLHLLLQHTSASLTLNENCDPTVRHDMERFFLRTVPDNGNYEHDYEGADDMPSHIKSSMLGTSLVLPVHKGRIQTGTWQGIWLGEHRIHGGSRRIIATLQGE [P0AF48] :: 6.66

Lab note: next sequence to report on.
Please look up its total protein half-life in vivo: MSEALLNAGRQTLMLELQEASRLPERLGDDFVRAANIILHCEGKVVVSGIGKSGHIGKKIAATLASTGTPAFFVHPAEALHGDLGMIESRDVMLFISYSGGAKELDLIIPRLEDKSIALLAMTGKPTSPLGLAAKAVLDISVEREACPMHLAPTSSTVNTLMMGDALAMAVMQARGFNEEDFARSHPAGALGARLLNKVHHLMRRDDAIPQVALTASVMDAMLELSRTGLGLVAVCDAQQQVQGVFTDGDLRRWLVGGGALTTPVNEAMTVGGTTLQSQSRAIDAKEILMKRKITAAPVVDENGKLTGAINLQDFYQAGII
7.01
